# system: T1, Hmm-hTFRC (REGN2431), monomeric human transferrin receptor ectodomain with N-terminal hexahistidine-myc-myc … (human, UniProt P02786 89-760)
# T1 construct: also called hmm.hTfR(C89-F763); His-myc-myc-hTFRC ecto
# T1 sequence (P02786 other isoform, or with tags, fused parts or gaps): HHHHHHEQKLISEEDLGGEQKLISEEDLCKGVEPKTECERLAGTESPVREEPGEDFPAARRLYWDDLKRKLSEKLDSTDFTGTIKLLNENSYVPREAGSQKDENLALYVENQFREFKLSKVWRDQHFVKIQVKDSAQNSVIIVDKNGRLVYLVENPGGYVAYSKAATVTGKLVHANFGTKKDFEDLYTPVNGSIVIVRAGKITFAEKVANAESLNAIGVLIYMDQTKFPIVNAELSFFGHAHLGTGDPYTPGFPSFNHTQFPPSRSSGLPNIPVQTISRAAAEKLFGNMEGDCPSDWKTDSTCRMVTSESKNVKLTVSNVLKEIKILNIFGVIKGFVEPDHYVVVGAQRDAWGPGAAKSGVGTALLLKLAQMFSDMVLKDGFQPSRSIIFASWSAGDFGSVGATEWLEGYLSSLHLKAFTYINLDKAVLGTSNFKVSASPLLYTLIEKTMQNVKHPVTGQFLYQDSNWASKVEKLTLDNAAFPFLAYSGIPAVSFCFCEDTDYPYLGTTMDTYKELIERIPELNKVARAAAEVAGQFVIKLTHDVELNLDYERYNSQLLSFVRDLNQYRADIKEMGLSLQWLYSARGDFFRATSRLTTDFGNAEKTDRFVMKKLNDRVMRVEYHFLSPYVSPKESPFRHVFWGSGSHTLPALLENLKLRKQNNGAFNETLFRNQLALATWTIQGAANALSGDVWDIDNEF
# assay: blocking ELISA, supernatant; Hmm-hTFRC binding to immobilized human holo-Tf
Would you mind telling me the reported % Blocking of each entry?
Give just the numeric value; % need not be written.

Note to self: % Blocking recorded for 69332 scFv (VH-VK) (scFv) QVTLRESGPALVKPSQTLTLTCTFSGFSLNTYGMFVSWIRQPPGKALEWLAHIHWDDDKYYSTSLKTRLTISKDTSKNQVVLTMTNMDPVDTATYYCARGHNNLNYIIHWGQGTLVTVSSAIQMTQSPSSLSASVGDRVTITCRASQGIRNDLGWYQQKPGKAPKLLIYAASTLQSGVPSRFSGSGSGTDFTLTISSLQPEDFATYYCLQDYNYPFTFGPGTKVDIK was 6

The binder listed as 12795B Fab (Fab, V domains shown, CHO supernatant) VH: EVQLVESGGGLVQPGGSLRLSCATSGFTFTSYDMKWVRQAPGLGLEWVSAISGSGGNTYYADSVKGRFTISRDNSRNTLYLQMNSLRAEDTAVYYCTRSHDFGAFDYFDYWGQGTLVTVSS VL: DIQMTQSPSSLSASVGDRVTITCRASQGIRDHFGWYQQKPGKAPKRLIYAASSLHSGVPSRFSGSGSGTEFTLTISSLQPEDFATYYCLQYDTYPLTFGGGTKVEIKR has a reported % Blocking of 44

% Blocking in this record for 31874B scFv (VH-VK) (scFv) EVQLVESGGGLVQPGGSLRLSCAASGFAFSSYAMTWVRQAPGKGLEWVSVISGTGGSTYYADSVKGRFTISRDNSKNTLYLQMNSLRAEDTAVYYCAKGGAARRMEYFQYWGQGTLVTVSSDIQMTQSPSSLSASVGDRVTITCRASQGISNYLAWYQQKPGKVPNLLIYAASTLQSGVPSRFSGSGSGTDFTLTISSLQPEDVATYYCQKYNSAPLTFGGGTKVEIK : 14
